Assay: qHTS for Inhibitors of Inflammasome Signaling: IL-1-beta AlphaLISA Primary Screen
Conditions: THP-1 LPS/ATP IL-1B secretion, 16 h; at 57.5 µM
Out of some 360,000 compounds screened, about 17,000 (4.7%) were called active. Inconclusive results (about 5%) are left out. No stated cut-off is given here; in the data, active means activity change below about -50%; inconclusive means mostly about -30% to -49%; inactive means weaker than that. Only a selection was taken, and actives are over-represented in it overall.
Response enum: active, inactive

# count of solved cases: 5
CCCCNc1nc2c(c(=O)[nH]c(=O)n2C)n1CCOc1ccccc1 ... inactive
CCCc1nc2oc3c(=O)[nH]cnc3c2c2c1COC(C)(C)C2 ... inactive
CCc1nc2c(OCc3ccc(C(=O)OC)cc3)cccn2c1N(C)C(=O)C(C)C ... inactive
CCCn1c(=N)n(CC(=O)c2ccc(Cl)c(Cl)c2)c2ccccc21 ... active
Nc1ccc(C(=O)N2CCN(S(=O)(=O)c3ccc(Cl)cc3)CC2)cc1[N+](=O)[O-] ... inactive

Input line: Entry `Cc1cccc(-n2c(=O)c3c(C)c(C)sc3n(CC(N)=O)c2=O)c1` : call = ?
Output line: inactive

Input line: And for COc1cccc(CNC(=O)CN2C(=O)NC(Cc3ccccc3)(c3ccccc3)C2=O)c1 (stereo not drawn) ?
Output line: active

Input line: And for `CC(C)(C)C(=O)c1c(N)[nH]c(C(=O)c2ccccc2)c1-c1ccc(F)cc1` ?
Output line: inactive

Input line: And for `CCOC(=O)c1nnn(-c2nc(OC)nc(N(C)C)n2)c1-c1ccccc1` ?
Output line: inactive

Input line: And for `CC1CCN(C(=O)c2ccc(S(=O)(=O)Cc3cc(F)ccc3F)c([N+](=O)[O-])c2)CC1` ?
Output line: active

Input line: And for CC1(C(=O)NS(=O)(=O)c2ccc(C#N)cc2)CCN1C(=O)CC1CCCC1 (stereo not drawn) ?
Output line: inactive

Input line: And for CCNC(=O)C1CCCN(C(=O)c2ccc(OC)cc2OC)CC1 (stereo not drawn) ?
Output line: inactive

Input line: And for COc1cc2c(cc1OC)CN(C(C)C(=O)Nc1cccc(S(=O)(=O)N3CCOCC3)c1)CC2 (stereo not drawn) ?
Output line: inactive

Input line: And for `O=C(Cn1nnc(N2CCCCC2)n1)c1ccc(Cl)c(Cl)c1` ?
Output line: inactive

Input line: And for Cc1ccccc1S(=O)(=O)NC(=O)C1(C)CCN1C(=O)C1(c2ccc(Cl)cc2)CC1 (stereo not drawn) ?
Output line: inactive

Input line: And for CCCC(=O)N1CCC1(C)C(=O)NCc1ccc(SC)cc1 (stereo not drawn) ?
Output line: inactive

Input line: And for `CCn1c(NCCc2ccc(OC)c(OC)c2)nc2c1c(=O)n(C)c(=O)n2C` ?
Output line: inactive

Input line: And for `Cc1ccc(Sc2ccc(NC(=O)c3ccc(F)cc3)cc2C#N)cc1` ?
Output line: inactive

Input line: And for CC1=NN(c2cccc(Cl)c2)C(=O)C12CC(C)=C(C)CS2 (stereo not drawn) ?
Output line: active

Input line: And for `COc1cccc2sc3cc(NCC[C@@H]4CCCN4C)ccc3c(=O)c12` ?
Output line: active
